- SYSTEM_NAME: hNET (Homo sapiens, UniProt P23975)
- Construct: expressed in transfected cells; host or cells: HEK cells expressing hNET
- Sequence (P23975 whole entry): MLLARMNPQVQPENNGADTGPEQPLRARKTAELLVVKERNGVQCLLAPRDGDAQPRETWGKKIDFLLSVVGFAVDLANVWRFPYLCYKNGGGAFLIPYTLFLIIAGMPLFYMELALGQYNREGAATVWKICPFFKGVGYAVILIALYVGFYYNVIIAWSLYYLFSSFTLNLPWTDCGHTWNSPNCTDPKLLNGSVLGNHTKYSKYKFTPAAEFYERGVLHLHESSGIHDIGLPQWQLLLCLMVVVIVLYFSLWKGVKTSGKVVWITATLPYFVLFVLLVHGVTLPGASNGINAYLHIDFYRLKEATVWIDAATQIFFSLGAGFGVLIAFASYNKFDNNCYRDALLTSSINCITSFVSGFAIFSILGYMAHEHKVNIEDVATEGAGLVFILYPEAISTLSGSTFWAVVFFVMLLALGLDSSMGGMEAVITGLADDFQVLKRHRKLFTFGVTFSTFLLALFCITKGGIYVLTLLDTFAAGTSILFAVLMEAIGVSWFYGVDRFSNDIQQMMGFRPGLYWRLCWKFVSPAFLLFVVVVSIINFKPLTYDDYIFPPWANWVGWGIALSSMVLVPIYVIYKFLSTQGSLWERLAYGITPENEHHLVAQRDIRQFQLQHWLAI
- METHOD_SUMMARY: [3H]NE uptake in HEK-hNET cells
- Type: cell-based
- TEST_CONTEXT: Table II; bound given in μM; read-out: [3H]NE Uptake in HEK-hNET cells IC50
OBSERVABLE: IC50

The following compounds have reported results that may help.
[[record]]
compound = "CN(CCC=C1c2ccccc2CCc2ccccc21)C(/C=C/c1ccccc1)C(=O)O (stereo not drawn) [RNH-Z-44]"
measured_value = "> 10 µM"

[[record]]
compound = "CN(CCCN1c2ccccc2C=Cc2ccccc21)C(/C=C/c1ccccc1)C(=O)O (stereo not drawn) [RNH-Z-52]"
measured_value = "> 10 µM"

[[record]]
compound = "O=C(O)C(/C=C/c1ccccc1)NC1CCc2ccccc21 (stereo not drawn) [RNH-Z-39]"
measured_value = "> 10 µM"

[[record]]
compound = "O=C(NCc1cccc2ccccc12)C(/C=C/c1ccccc1)N1CCC(c2ccccc2)CC1 (stereo not drawn) [RNH-Z-31]"
measured_value = "> 10 µM"

[[record]]
compound = "O=C(O)C(/C=C/c1ccccc1)N1CCC(O)(c2ccc(Cl)cc2)CC1 (stereo not drawn) [RNH-Z-48]"
measured_value = "> 10 µM"


Turning now to a further compound:
(Q) Requested field: IC50. Item: CC(Cc1cccc(C(F)(F)F)c1)NC(/C=C/c1ccccc1)C(=O)O (stereo not drawn) [RNH-Z-58]
(A) > 10 µM

###

- SYSTEM_NAME: human dopamine transporter (hDAT) (Homo sapiens)
- Construct: expressed in transfected cells; host or cells: HEK-293 cells stably expressing recombinant hDAT
- METHOD_SUMMARY: [125I]RTI-55 binding to human dopamine transporter in HEK-293 hDAT membranes
- TEST_CONTEXT: Table II; read-out: [125I]RTI-55 Binding in HEK hDAT Membranes Ki (nM) sem
OBSERVABLE: Ki (nM)
Field: numeric (nM). Do not append units.

(Q) Requested field: Ki. Item: O=C(NCc1cccc2ccccc12)C(/C=C/c1ccccc1)N1CCC(c2ccccc2)CC1 (centres unmarked) [RNH-Z-31]
(A) 7730

(Q) Can you handle O=C(O)C(/C=C/c1ccccc1)C1CCN(CCOC(c2ccc(F)cc2)c2ccc(F)cc2)CC1 (centres unmarked) [ZHN-93] next?
(A) 727

(Q) Can you handle CN(C)C(=O)C(/C=C/c1ccccc1)N1CCC(c2ccccc2)CC1 (centres unmarked) [RNH-Z-28] next?
(A) 3920

(Q) Can you handle O=C(O)C(/C=C/c1ccccc1)N1CCN(CCOC(c2ccccc2)c2ccccc2)CC1 (centres unmarked) [ZHN-94] next?
(A) 2780

(Q) Can you handle CN(CCC=C1c2ccccc2CCc2ccccc21)C(/C=C/c1ccccc1)C(=O)O (centres unmarked) [RNH-Z-44] next?
(A) 3300

###

Quick reference for pKi among some compounds
- SYSTEM_NAME: human dopamine transporter (hDAT) (Homo sapiens, UniProt Q01959)
- Construct: expressed in transfected cells; host or cells: HEK-293 cells stably expressing recombinant hDAT
- Sequence (Q01959 whole entry): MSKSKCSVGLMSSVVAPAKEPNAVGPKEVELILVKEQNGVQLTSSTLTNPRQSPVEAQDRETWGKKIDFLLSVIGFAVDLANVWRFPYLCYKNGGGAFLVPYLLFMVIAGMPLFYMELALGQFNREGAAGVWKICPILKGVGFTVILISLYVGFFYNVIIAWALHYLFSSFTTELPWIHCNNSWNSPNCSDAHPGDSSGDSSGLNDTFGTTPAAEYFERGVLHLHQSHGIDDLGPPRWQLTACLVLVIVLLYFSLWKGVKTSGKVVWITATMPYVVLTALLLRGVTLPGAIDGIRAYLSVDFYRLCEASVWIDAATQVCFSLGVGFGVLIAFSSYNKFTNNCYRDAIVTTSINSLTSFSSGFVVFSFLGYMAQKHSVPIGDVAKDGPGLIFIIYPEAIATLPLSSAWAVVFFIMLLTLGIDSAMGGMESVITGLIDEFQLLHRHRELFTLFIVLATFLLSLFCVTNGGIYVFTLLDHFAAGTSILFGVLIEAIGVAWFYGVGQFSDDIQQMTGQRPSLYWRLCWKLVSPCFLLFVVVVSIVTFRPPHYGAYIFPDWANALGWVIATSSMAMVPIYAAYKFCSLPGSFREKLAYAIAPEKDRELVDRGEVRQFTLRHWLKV
- METHOD_SUMMARY: [125I]RTI-55 binding to human dopamine transporter in HEK-293 hDAT membranes
- TEST_CONTEXT: Table 1; [125I]RTI-55 34 pM, HEK-293 hDAT membranes; mean +/- range or s.e.m. of 2 or 3 experiments; read-out: Ki value
Reminder that pKi means the negative base-10 logarithm of the concentration expressed in mol/L.

[[record]]
compound = "O=C(O)C(/C=C/c1ccccc1)C1CCN(CCOC(c2ccccc2)c2ccccc2)CC1 (stereo not drawn)"
system_name = "human dopamine transporter (hDAT) (Homo sapiens, UniProt Q01959)"
measured_value = 5.43

[[record]]
compound = "O=C(O)C(/C=C/c1ccccc1)N1CCN(CCOC(c2ccccc2)c2ccccc2)CC1 (stereo not drawn)"
system_name = "human dopamine transporter (hDAT) (Homo sapiens, UniProt Q01959)"
measured_value = 5.56

[[record]]
compound = "O=C(NCc1cccc2ccccc12)C(/C=C/c1ccccc1)N1CCC(c2ccccc2)CC1 (stereo not drawn)"
system_name = "human dopamine transporter (hDAT) (Homo sapiens, UniProt Q01959)"
measured_value = 5.11

[[record]]
compound = "O=C(O)C(/C=C/c1ccccc1)C1CCN(CCOC(c2ccc(F)cc2)c2ccc(F)cc2)CC1 (stereo not drawn)"
system_name = "human dopamine transporter (hDAT) (Homo sapiens, UniProt Q01959)"
measured_value = 6.14

[[record]]
compound = "CN(CCC=C1c2ccccc2CCc2ccccc21)C(/C=C/c1ccccc1)C(=O)O (stereo not drawn)"
system_name = "human dopamine transporter (hDAT) (Homo sapiens, UniProt Q01959)"
measured_value = 5.48


(Q) Requested field: pKi. Item: CN(C)C(=O)C(/C=C/c1ccccc1)N1CCC(c2ccccc2)CC1 (stereo not drawn)
(A) 5.41

###

- SYSTEM_NAME: human dopamine transporter (hDAT) (Homo sapiens, UniProt Q01959)
- Construct: expressed in transfected cells; host or cells: HEK-293 cells stably expressing recombinant hDAT
- METHOD_SUMMARY: [125I]RTI-55 binding to human dopamine transporter in HEK-293 hDAT membranes
- TEST_CONTEXT: Table II
OBSERVABLE: [125I]RTI-55 Binding in HEK hDAT Membranes Hill slope
// response body must contain only the number

[[record]]
compound = "CN(C)C(=O)C(/C=C/c1ccccc1)N1CCC(c2ccccc2)CC1 (stereo not drawn) [RNH-Z-28]"
measured_value = "−2.09"

[[record]]
compound = "O=C(O)C(/C=C/c1ccccc1)C1CCN(CCOC(c2ccc(F)cc2)c2ccc(F)cc2)CC1 (stereo not drawn) [ZHN-93]"
measured_value = "−1.02"

[[record]]
compound = "O=C(O)C(/C=C/c1ccccc1)N1CCN(CCOC(c2ccccc2)c2ccccc2)CC1 (stereo not drawn) [ZHN-94]"
measured_value = "−0.78"

[[record]]
compound = "CN(CCC=C1c2ccccc2CCc2ccccc21)C(/C=C/c1ccccc1)C(=O)O (stereo not drawn) [RNH-Z-44]"
measured_value = "−2.16"


(Q) Requested field: [125I]RTI-55 Binding in HEK hDAT Membranes Hill slope. Item: O=C(NCc1cccc2ccccc12)C(/C=C/c1ccccc1)N1CCC(c2ccccc2)CC1 (stereo not drawn) [RNH-Z-31]
(A) −7.00
